// TGI lookup, one value per entry
Tested on: NCI-H522 lung
Experiment: NCI tumour cell line growth inhibition, 48 h
Give your result in µM as a bare value.

For orientation, consider the following solved cases.
OCC(O)CC[CH2][Sn]([Br])([c]1ccccc1)[c]1ccccc1 (centres undefined) : 92.1
CN1C(=O)C2(Cc3cn(C45CC67SSC(CO)(C(=O)N6C4Nc4ccccc45)N(C)C7=O)c4ccccc34)SSC1(CO)C(=O)N2C (centres undefined) : 0.0137
CCC(=O)Oc1c2ccsc2c(OC(=O)CC)c2ccsc12 : 2.06

Q: For the molecule shown here, "COC(=O)[C@]12CC[C@@H](C)[C@H](C)[C@@H]1C1=CC[C@@H]3[C@@]4(C)C/C(=N\O)[C@H](O)[C@@]5(C)COC(=C45)C[C@@]3(C)[C@]1(C)CC2" , give the reported TGI.
A: 30.1

----------
System: RXF 393 renal
Test: NCI tumour cell line growth inhibition, 48 h; in the data active means GI50 below about 0.43 µM; inactive means the rest
# valid calls are T (active), F (inactive); nothing else

# count of solved cases: 9
CCN(CC)c1ccc(/C=C/c2ccc3cc(C)ccc3[n+]2CC)cc1 : T
O=C(/C(Br)=C/c1ccccc1)c1ccccc1 : F
Nc1cc(N)c2nc(-c3ccccc3)c(Nc3ccc(Cl)c(Cl)c3)nc2c1 : F
C=C1C(=O)O[C@H]2[C@H]1CC/C(COC(=O)c1ccc3ccccc3c1)=C\CC[C@@]1(C)O[C@@H]21 : T
N#Cc1ccc(NC(=O)Nc2ccc(Oc3ccc(NC(=O)Nc4ccc(C#N)cc4)cc3)cc2)cc1 : F
Oc1ccc2ccccc2c1N=Nc1nccs1 : F
CC(C)(C)OC(=O)N1CCc2c(sc3ncnc(N/N=C/c4cccc5ccccc45)c23)C1 : F
CC/C(=C(/c1ccc(O)cc1)c1ccc(OCCNC)cc1)c1ccccc1 : F
Cn1c2ccccc2c2c(-c3ccccc3)[n+]3ccncc3nc21 : F

Q: Could you please tell me the result logged for "O=C1Nc2c(C(F)(F)F)cccc2[C@]1(c1ccc(O)cc1)c1ccc(OC(F)(F)F)cc1" in this assay?
A: F

----------
// TGI lookup, one value per entry
System: SR leukemia
Test: NCI tumour cell line growth inhibition, 48 h
Give your result in µM as a bare value.

Q: For the compound shown here, C=C1CC(C)(c2ccc(Nc3nc4ccccc4c4occc34)cc2)OC1=O (configuration not stated) , give the reported TGI.
A: 4.53

----------
Test system: BT-549 breast
Assay: NCI tumour cell line growth inhibition, 48 h
measured endpoint: TGI (nM)
Give your result in nM as a bare value.

Q: For the molecule shown here, CC(=O)OCC(OC(C)=O)C1C[C@H]2O[C@@H]3[C@H](C[C@H]2O1)O[C@@]1(C[C@@H]3C)C[C@H](C)[C@@H]2O[C@]3(C[C@@H]2O1)C[C@H]1O[C@H]2[C@H](C)[C@H]4OC(=O)CC5CC[C@H]6OC7[C@H]8O[C@]9(CC[C@H]%10CC(O)(CO)[C@H](CC[C@H]%11C[C@@H](C)C(O)(CO)C(C[C@@H]4O[C@H]2C[C@H]1O3)O%11)O%10)CC8O[C@@H]7[C@@H](O9)[C@H]6O5 (some centres not stated) , give the reported TGI.
A: 9.23

----------
// TGI lookup, one value per entry
Test system: COLO 205 colon
Experiment: NCI tumour cell line growth inhibition, 48 h
Give your result in µM as a bare value.

For orientation, consider the following solved cases.
CN1CCN(C)C12C=c1ccccc1=CC21CC1 : 25.6
N#CSc1c[nH]c2cccc(/C=C/C(=O)/C=C(/C=C/c3cccc4[nH]cc(SC#N)c34)OB(F)F)c12 : 0.856
COCc1nc2c(OC)cc(-c3nc4ccc(N5CCN(C)CC5)cc4[nH]3)c(OC)c2[nH]1 : 77
CCOn1c(C2(CC3CCN(C(=O)c4ccccc4)CC3)OCCO2)cc2ccccc21 : 36.3
CC(C)(C)c1cc(/C=C(\C#N)C(=O)NCCO)cc(C(C)(C)C)c1O : 37.2
COc1ccc(NC2=CC(=O)C(=O)c3ccccc32)nn1 : 3.21

Could you now look at the following compound, please?
Q: For the compound shown here, CC(C)(C)C1C=C(Sc2ccccc2)C(=O)O1 (stereo unspecified) , give the reported TGI.
A: 54.4

----------
Test system: HOP-62 NSCLC
Assay: NCI tumour cell line growth inhibition, 48 h
measured endpoint: TGI

For orientation, consider the following solved cases.
C=c1c(OC)c(OC)c(O)c2c1=c1cc([N+](=O)[O-])cc(OC)c1=N2 : > 100 µM
O=C(O)C(CO)NC(=O)n1c2ccccc2c2ccccc21 (stereo unspecified) : > 100 µM
COc1ccc(-c2cc(=O)c3c(OC)c(OC)c(OC)cc3o2)cc1 : 59.8 µM
CC(C)(C)[Si](C)(C)OCC1OC(n2cnc3c(N)ncnc32)C(O[Si](C)(C)C(C)(C)C)C1O[Si](C)(C)C(C)(C)C (stereo unspecified) : 46 µM
COc1ccc(-c2cc(=O)c3ccc(O)cc3o2)cc1OC : > 100 µM
N#Cc1ccc(O)c(C2=NCC(c3cccc(Oc4ccccc4)c3)O2)c1 (stereo unspecified) : 12.7 µM
CC(C)(C)c1cc(/C=C(\C#N)C(=O)NCCO)cc(C(C)(C)C)c1O : 49.6 µM
COc1c(C)c2nc3ccccc3[nH]c2c2c(=O)ccnc12 : > 100 µM

Q: For the molecule shown here, CC1CC(=O)Nc2nc3ccccc3n21 (stereo unspecified) , give the reported TGI.
A: > 100 µM

Q: Also NC(=O)C(=O)N/N=C(\CC1(O)C(=O)Nc2ccccc21)c1ccc2ccccc2c1 (stereo unspecified) ?
A: > 100 µM

Q: Also "CN1CCN(C)C12C=c1ccccc1=CC21CC1" ?
A: > 100 µM

Q: Also "CS(=O)(=O)c1ccc([C@H]2O[C@@H](CO)C[C@]2(O)c2ccc(S(C)(=O)=O)cc2)cc1" ?
A: > 100 µM

Q: Also O=C(Nc1cccc(O)c1)C(=O)C(C(=O)c1ccccc1F)C1OC(=O)c2ccccc21 (stereo unspecified) ?
A: > 100 µM

Q: Also "[Cl-].[Dy+3].[O-]/N=C(\c1ccccc1)c1ccccn1.[O-]/N=C(\c1ccccc1)c1ccccn1.[O-]/N=C(\c1ccccc1)c1ccccn1" ?
A: > 100 µM

----------
Test system: HCT-15 colon
Experiment: NCI tumour cell line growth inhibition, 48 h
The label depends only on TGI: met if it is at least 10 µM, not met if it is smaller.

# count of solved cases: 5
CC1(C)CNC(=O)C2(C=NC(C)(C)CNC(=O)C3(C=N1)CCCO3)CCCO2 (centres undefined) : met
CCC(=O)Oc1c2ccsc2c(OC(=O)CC)c2ccsc12 : not met
N#Cc1ccc(O)c(C2=NCC(c3cccc(Oc4ccccc4)c3)O2)c1 (centres undefined) : met
CCN(CC)c1ccc(/C=C/c2ccc3cc(C)ccc3[n+]2CC)cc1 : met
Nc1cc(N)c2nc(-c3ccccc3)c(Nc3ccc(Cl)c(Cl)c3)nc2c1 : met

Q: // inclusive: TGI at least 10 µM? input: "CN(C)CCn1c(=O)c2ccc(NCCCN(C)CCCNc3ccc4c(=O)n(CCN(C)C)c(=O)n5c6ccc([N+](=O)[O-])cc6c(=O)c3c45)c3c(=O)c4cc([N+](=O)[O-])ccc4n(c1=O)c23"
A: not met

Q: Also CCOC(=O)C1=C(OC(OCC)C(CC)[Se]c2ccccc2)CCCC1 (centres undefined) ?
A: met

Q: Also "COc1ccc(/C=C/c2nccc3ccccc23)cc1OC" ?
A: met

Q: Also "COc1ccc(/C(COc2c(-c3ccccc3)oc3ccccc3c2=O)=N\O)cc1" ?
A: met

----------
Tested on: SNB-75 CNS
Assay: NCI tumour cell line growth inhibition, 48 h
// TGI lookup, one value per entry

Oc1ccc2ccccc2c1N=Nc1nccs1 : 24.7 µM
COc1ccc(/C=C/c2nccc3ccccc23)cc1OC : > 10 µM
Cn1c2ccccc2c2c(-c3ccccc3)[n+]3ccncc3nc21 : > 100 µM
COc1ccc(-c2cc(=O)c3c(OC)c(OC)c(OC)cc3o2)cc1 : > 100 µM
COC(=O)[C@]12CC[C@@H](C)[C@H](C)[C@@H]1C1=CC[C@@H]3[C@@]4(C)C/C(=N\O)[C@H](O)[C@@]5(C)COC(=C45)C[C@@]3(C)[C@]1(C)CC2 : 21.4 µM

Could you now look at the following molecule, please?
Q: For the molecule shown here, "O=C(Cc1ccc([N+](=O)[O-])cc1)OCC#CCOC(=O)Cc1ccc([N+](=O)[O-])cc1" , give the reported TGI.
A: > 10 µM

----------
Test system: CCRF-CEM leukemia
Assay: NCI tumour cell line growth inhibition, 48 h; in the data active means GI50 below about 0.43 µM; inactive means the rest
# valid calls are active, inactive; nothing else

OCC(O)CC[CH2][Sn]([Br])([c]1ccccc1)[c]1ccccc1 (stereo not given) : inactive
CCOC(=O)[C]1([Bi]([CH3])[CH3])N=NC(C(=O)OC)=C1C(=O)OC (stereo not given) : inactive
Oc1c(CN2CCC(N3CCCCC3)CC2)cc(Cc2cc(CN3CCC(N4CCCCC4)CC3)c(O)c3ncccc23)c2cccnc12 : active
O=C1CCCCN1CCCCC#Cc1ccccc1C#Cc1ccc([N+](=O)[O-])cc1 : inactive

Next up:
Q: Could you please tell me the result logged for COc1cc(C2NC(=O)c3ccccc3N2)ccc1OCCCCCOc1c(OC)cc(C2=NOC(c3cc(OC)c(OC)c(OC)c3)C2)cc1OC (stereo not given) in this assay?
A: inactive
